measurement description: Plasma drug concentrations and pharmacokinetics after a single intravenous or subcutaneous injection of SIPI-G9 in SD rats
measurement setup: male, SD, rat, plasma, sc, 5 mg/kg, Plasma G-9 concentration, SIPI-G9 5 mg/kg single subcutaneous injection, SD rats, 10 min, individual rats
Peptide text beside a SMILES is read from it. * marks the point of attachment. X1 = CC(=O)N[C@H]1C(*)O[C@H](CO)[C@@H](O)[C@@H]1O
recorded metric: level at 10 min (ng/mL)
Numbers only, in ng/mL.

Kindly note the recorded level at 10 min for CC(=O)N[C@H]1C(OC[C@H](NC(=O)[C@@H](NC(=O)[C@H](Cc2ccc(O)cc2)NC(=O)[C@@H](NC(=O)[C@H](CCC(N)=O)NC(=O)CN)[C@@H](C)OC2O[C@H](CO)[C@@H](O)[C@H](O)[C@H]2NC(C)=O)[C@@H](C)O)C(=O)NCC(=O)O)O[C@H](CO)[C@@H](O)[C@@H]1O (stereo partly shown) [SIPI-G9, GQT(Glc)YTS(Glc)G] (H-GQT(X1)YTS(X1)G-OH) , which is 633

---

measurement description: in vivo
measurement setup: rat, in vivo, iv, 1 mg/kg, Tmax, Mean
Peptide text beside a SMILES is read from it. * marks the point of attachment. X1 = CC(=O)N[C@H]1C(*)O[C@H](CO)[C@@H](O)[C@@H]1O
recorded metric: Tmax

Kindly note the recorded Tmax for CC(=O)N[C@H]1C(OC[C@H](NC(=O)[C@@H](NC(=O)[C@H](Cc2ccc(O)cc2)NC(=O)[C@@H](NC(=O)[C@H](CCC(N)=O)NC(=O)CN)[C@@H](C)OC2O[C@H](CO)[C@@H](O)[C@H](O)[C@H]2NC(C)=O)[C@@H](C)O)C(=O)NCC(=O)O)O[C@H](CO)[C@@H](O)[C@@H]1O (stereo partly shown) [SIPI-G9, GQT(Glc)YTS(Glc)G] (H-GQT(X1)YTS(X1)G-OH) , which is 3 min

---

measurement description: Plasma drug concentrations and pharmacokinetics after a single subcutaneous injection of SP peptide or SIPI-D00 peptide in SD rats
Type: in vivo
measurement setup: male, SD, rat, plasma, sc, 5 mg/kg, SIPI-D00 5 mg/kg s.c., SD rats, time 2 h, parallels 1-4; read-out: Plasma concentration
Square brackets hold non-standard residues; d marks the D form. Peptide text beside a SMILES is read from it.
recorded metric: level at 2 h (ng/mL)
Give bare numbers, in ng/mL.

Kindly note the recorded level at 2 h for C[C@H](O)[C@@H](NC(=O)[C@@H](Cc1ccc(O)cc1)NC(=O)[C@H](NC(=O)[C@@H](CO)NC(=O)CN)[C@H](C)O)C(=O)N[C@H](CCC(N)=O)C(=O)NCC(=O)O [SIPI-D00, GSTYTQG] (H-G[dS][dT][dY][dT][dQ]G-OH) , which is 1160

---

measurement description: in vivo
measurement setup: rat, in vivo, iv, 1 mg/kg, Cmax, Mean
Peptide text beside a SMILES is read from it. * marks the point of attachment. X1 = CC(=O)N[C@H]1C(*)O[C@H](CO)[C@@H](O)[C@@H]1O
recorded metric: Cmax (ng/mL)
Answers are plain numbers, in ng/mL.

Kindly note the recorded Cmax for CC(=O)N[C@H]1C(OC[C@H](NC(=O)[C@@H](NC(=O)[C@H](Cc2ccc(O)cc2)NC(=O)[C@@H](NC(=O)[C@H](CCC(N)=O)NC(=O)CN)[C@@H](C)OC2O[C@H](CO)[C@@H](O)[C@H](O)[C@H]2NC(C)=O)[C@@H](C)O)C(=O)NCC(=O)O)O[C@H](CO)[C@@H](O)[C@@H]1O (stereo partly shown) [SIPI-G9, GQT(Glc)YTS(Glc)G] (H-GQT(X1)YTS(X1)G-OH) , which is 675

---

measurement description: Plasma drug concentrations and pharmacokinetics after a single intravenous or subcutaneous injection of SIPI-G9 in SD rats
measurement setup: male, SD, rat, plasma, sc, 5 mg/kg, Plasma G-9 concentration, SIPI-G9 5 mg/kg single subcutaneous injection, SD rats, 20 min, individual rats
Peptide text beside a SMILES is read from it. * marks the point of attachment. X1 = CC(=O)N[C@H]1C(*)O[C@H](CO)[C@@H](O)[C@@H]1O
recorded metric: level at 20 min (ng/mL)
One number for each entry, in ng/mL.

Kindly note the recorded level at 20 min for CC(=O)N[C@H]1C(OC[C@H](NC(=O)[C@@H](NC(=O)[C@H](Cc2ccc(O)cc2)NC(=O)[C@@H](NC(=O)[C@H](CCC(N)=O)NC(=O)CN)[C@@H](C)OC2O[C@H](CO)[C@@H](O)[C@H](O)[C@H]2NC(C)=O)[C@@H](C)O)C(=O)NCC(=O)O)O[C@H](CO)[C@@H](O)[C@@H]1O (stereo partly shown) [SIPI-G9, GQT(Glc)YTS(Glc)G] (H-GQT(X1)YTS(X1)G-OH) , which is 324

---

measurement description: Plasma drug concentrations and pharmacokinetics after a single intravenous or subcutaneous injection of SIPI-G9 in SD rats
measurement setup: male, SD, rat, plasma, sc, 5 mg/kg, Plasma G-9 concentration, SIPI-G9 5 mg/kg single subcutaneous injection, SD rats, 180 min, individual rats
Peptide text beside a SMILES is read from it. * marks the point of attachment. X1 = CC(=O)N[C@H]1C(*)O[C@H](CO)[C@@H](O)[C@@H]1O
recorded metric: level at 3 h (ng/mL)
Give bare numbers, in ng/mL.

Kindly note the recorded level at 3 h for CC(=O)N[C@H]1C(OC[C@H](NC(=O)[C@@H](NC(=O)[C@H](Cc2ccc(O)cc2)NC(=O)[C@@H](NC(=O)[C@H](CCC(N)=O)NC(=O)CN)[C@@H](C)OC2O[C@H](CO)[C@@H](O)[C@H](O)[C@H]2NC(C)=O)[C@@H](C)O)C(=O)NCC(=O)O)O[C@H](CO)[C@@H](O)[C@@H]1O (stereo partly shown) [SIPI-G9, GQT(Glc)YTS(Glc)G] (H-GQT(X1)YTS(X1)G-OH) , which is 6.6

---

measurement description: Stability of each 7-peptide compound in rat whole blood
Type: in vitro ADME
measurement setup: rat whole blood, 37° C., 1000 ng/mL, incubation time 2 min; read-out: Recovery rate (%) M±SD
Square brackets hold non-standard residues; d marks the D form. Peptide text beside a SMILES is read from it. * marks the point of attachment. X1 = CC(=O)N[C@H]1C(*)O[C@H](CO)[C@@H](O)[C@@H]1O
Give recovery for every item shown.
Give bare numbers, in %.

C[C@H](O)[C@@H](NC(=O)[C@@H](Cc1ccc(O)cc1)NC(=O)[C@H](NC(=O)[C@@H](CO)NC(=O)CN)[C@H](C)O)C(=O)N[C@H](CCC(N)=O)C(=O)NCC(=O)O [SIPI-D00, GSTYTQG] (H-G[dS][dT][dY][dT][dQ]G-OH)
97.9
CC(=O)N[C@H]1C(OC[C@H](NC(=O)[C@@H](NC(=O)[C@H](Cc2ccc(O)cc2)NC(=O)[C@@H](NC(=O)[C@H](CCC(N)=O)NC(=O)CN)[C@@H](C)OC2O[C@H](CO)[C@@H](O)[C@H](O)[C@H]2NC(C)=O)[C@@H](C)O)C(=O)NCC(=O)O)O[C@H](CO)[C@@H](O)[C@@H]1O (stereo partly shown) [SIPI-G9, GQT(Glc)YTS(Glc)G] (H-GQT(X1)YTS(X1)G-OH)
98.8
CC(=O)N[C@H]1C(O[C@H](C)[C@H](NC(=O)[C@H](Cc2ccc(O)cc2)NC(=O)[C@@H](NC(=O)[C@H](CCC(N)=O)NC(=O)CN)[C@@H](C)OC2O[C@H](CO)[C@@H](O)[C@H](O)[C@H]2NC(C)=O)C(=O)N[C@@H](CO)C(=O)NCC(=O)O)O[C@H](CO)[C@@H](O)[C@@H]1O (stereo partly shown) [SIPI-G8, GQT(Glc)YT(Glc)SG] (H-GQT(X1)YT(X1)SG-OH)
83.6

Let us examine a further case.
Kindly note the recorded recovery for CC(=O)N[C@H]1C(OC[C@H](NC(=O)[C@@H](NC(=O)[C@H](Cc2ccc(O)cc2)NC(=O)[C@@H](NC(=O)[C@H](CCC(N)=O)NC(=O)CN)[C@@H](C)OC2O[C@H](CO)[C@@H](O)[C@H](O)[C@H]2NC(C)=O)[C@@H](C)OC2O[C@H](CO)[C@@H](O)[C@H](O)[C@H]2NC(C)=O)C(=O)NCC(=O)O)O[C@H](CO)[C@@H](O)[C@@H]1O (stereo partly shown) [SIPI-G4, GQT(Glc)YT(Glc)S(Glc)G] (H-GQT(X1)YT(X1)S(X1)G-OH) , which is 94.6

---

measurement description: Stability of each 7-peptide compound in rat whole blood
Type: in vitro ADME
measurement setup: rat whole blood, 37° C., 1000 ng/mL, incubation time 10 min; read-out: Recovery rate (%) M±SD
recorded metric: recovery (%)
Give bare numbers, in %.

Kindly note the recorded recovery for H-GQTYTSG-OH [SP, GQTYTSG, reference compound] , which is 28.5
